Target: ROMK (Kir1.1) channel (Homo sapiens)
Sequence (P48048 whole entry): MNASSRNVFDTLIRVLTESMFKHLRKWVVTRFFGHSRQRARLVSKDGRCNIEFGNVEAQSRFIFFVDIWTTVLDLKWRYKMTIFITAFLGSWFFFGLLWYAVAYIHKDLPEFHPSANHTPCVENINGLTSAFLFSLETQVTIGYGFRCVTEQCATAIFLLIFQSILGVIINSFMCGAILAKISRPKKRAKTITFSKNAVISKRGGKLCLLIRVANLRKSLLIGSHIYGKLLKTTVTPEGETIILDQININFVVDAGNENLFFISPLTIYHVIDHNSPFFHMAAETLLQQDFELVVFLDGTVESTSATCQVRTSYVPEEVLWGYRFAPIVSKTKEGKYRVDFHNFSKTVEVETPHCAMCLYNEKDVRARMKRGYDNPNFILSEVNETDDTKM
Assay: Thallium Flux Assay
Procedure: A Thallium Flux Assay was performed on each of the final product compounds in the Examples. When the final product of an Example was an HCl salt, the salt was run in the Assay. This assay has been described previously; see, e.g., PCT Published Application WO 2013/062900.
Measured log10 IC50, listed per entry.
PARAMETER_MEASURED: log10 IC50 (log10 of the value in nM)

{"columns": ["COMPOUND", "log10 IC50"],
 "data": [
  ["O=C1C=C(N2CCC3(CCN(C(=O)Cc4cnc(-n5cnnn5)cn4)CC3)CC2)CO1 [Example 106]", 2.58],
  ["CC1=C(N2CCC3(CCN(C[C@H](O)c4ccnc(-n5cnnn5)c4)CC3)CC2)COC1=O [Example 61]", 1.52],
  ["Cc1nc(-n2cnnn2)ccc1[C@@H](O)CN1CCC2(CC1)CCN(C1=CC(=O)OC1)C(=O)C2 [Example 26]", 1.68],
  ["CC1=C(N2CCC3(CCN(C[C@@H](O)c4ccc(-n5cnnn5)nc4)CC3)CC2)COC1=O [Example 48]", 1.28],
  ["O=C1C=C(N2CCC3(CCN(C(=O)Cc4c(F)cc(-n5cnnn5)cc4F)CC3)CC2)CO1 [Example 100]", 2.61],
  ["Cc1c(CC(=O)N2CCC3(CC2)CCN(C2=CC(=O)OC2)CC3)ccc2c1COC2=O [Example 105]", 2.68],
  ["CC1=C(N2CCC3(CCN(C[C@@H](O)c4ccc(-n5cnnn5)nc4C)CC3)CC2)COC1=O [Example 46]", 1.58],
  ["Cc1nc(-n2cnnn2)ccc1[C@@H](O)CN1CCC2(CC1)CCN(C1=CC(=O)OC1)CC2 [Example 13]", 1.15]
]}
